Cited source: patent USRE46558E1

Record form. Attribute: inhibition. Fill in for each entry.
- Tested on: human umbilical vein endothelial cells, HUVECs (proliferating)
- runDescription: HUVEC proliferation assay (proliferating, b-FGF or VEGF stimulated)
- Type: cell-based
- Design: dose or concentration left out as unconfirmed
- runConditions: Homo sapiens; proliferating HUVEC, 48 h, % of maximal b-FGF or VEGF response; read-out: HUVECp % inhibition
Give bare numbers, in %.

Example molecules with recorded inhibition:
molecule	inhibition [%]
COc1ccc(COc2cc3oc(=O)c4cc(C(C)O)ccc4c3cc2OC)cc1 (centres unmarked) [Palomid 529]	113
COc1ccccc1COc1cc2oc(=O)c3cc(C(C)O)ccc3c2cc1OC (centres unmarked) [Palomid 545]	100
COc1cc(COc2cc3oc(=O)c4cc(C(C)O)ccc4c3cc2OC)cc(OC)c1 (centres unmarked) [Palomid 547]	106

Provide inhibition values for the following items, in order.
1. CCc1ccc2c(c1)c(=O)oc1cc(OCc3ccc(OC)cc3)c(OC)cc12 [Palomid 550]
2. CCc1ccc2c(c1)c(=O)oc1cc(OCc3ccc(Br)cc3)c(OC)cc12 [Palomid 560]

77
53

----------
- Tested on: colon carcinoma cell line, HCT-116
- runDescription: Cancer cell line proliferation, colon
- Type: cell-based
- Set-up: dose or concentration left out as unconfirmed
- runConditions: Homo sapiens
Use 20% as the dividing line for inhibition, with the line itself on the condition met side and lower values as condition not met.

These solved cases illustrate the format of a correct answer.
compound	discreteLabel
CCc1ccc2c(c1)c(=O)oc1cc(OCc3ccc(OC)cc3)c(OC)cc12 [Palomid 550]	condition not met
CCc1ccc2c(c1)c(=O)oc1cc(OCc3ccc(C(=O)c4ccccc4)cc3)c(OC)cc12 [Palomid 574]	condition met
COc1cc2c(cc1OCc1ccccc1)oc(=O)c1cc(C(C)O)ccc12 (centres unmarked) [Palomid 393]	condition met
COc1ccccc1COc1cc2oc(=O)c3cc(C(C)O)ccc3c2cc1OC (centres unmarked) [Palomid 545]	condition met
COc1cc(COc2cc3oc(=O)c4cc(C(C)O)ccc4c3cc2OC)cc(OC)c1 (centres unmarked) [Palomid 547]	condition not met

Kindly determine if inhibition recorded for COc1cc2c(cc1OCc1ccc(C)cc1)oc(=O)c1cc(C(C)O)ccc12 (centres unmarked) [Palomid 575] is above or exactly 20%.
condition not met

For this compound, is measured inhibition 20% or higher? CCc1ccc2c(c1)c(=O)oc1cc(OCc3ccc(C(=O)OC)cc3)c(OC)cc12 [Palomid 573]
condition not met

----------
- Tested on: human umbilical vein endothelial cells, HUVECs (proliferating)
- runDescription: HUVEC proliferation assay (proliferating, b-FGF or VEGF stimulated)
- Type: cell-based
- Parameters: dose or concentration left out as unconfirmed
- runConditions: Homo sapiens; proliferating HUVEC, 48 h, % of maximal b-FGF or VEGF response; read-out: HUVECp % inhibition
measurementKind: inhibition (%)
Numbers only, in %.

Solved entries (count: 2):
compound	measurementKind	resultUnit	result
COc1cc(COc2cc3oc(=O)c4cc(C(C)=O)ccc4c3cc2OC)cc(OC)c1 [Palomid 546]	inhibition	%	100
COc1cc2c(cc1OCc1ccc(C)cc1)oc(=O)c1cc(C(C)O)ccc12 (centres unmarked) [Palomid 575]	inhibition	%	104

Each of the following entries comes with a recorded value; kindly state inhibition for each.
1. CCc1ccc2c(c1)c(=O)oc1cc(OCc3ccc(C(=O)c4ccccc4)cc3)c(OC)cc12 [Palomid 574]
2. COc1cc2c(cc1OCCc1ccccc1)oc(=O)c1cc(C(C)=O)ccc12 [Palomid 568]
3. COc1cc2c(cc1OCc1ccc(C)cc1)oc(=O)c1cc(C(C)=O)ccc12 [Palomid 559]
4. CCc1ccc2c(c1)c(=O)oc1cc(OCc3ccccc3OC)c(OC)cc12 [Palomid 551]

[74, 78, 96, 62]

// each compound listed below needs its inhibition
1. COc1cc2c(cc1OCc1ccccc1)oc(=O)c1cc(C(C)O)ccc12 (centres unmarked) [Palomid 393]
2. CCc1ccc2c(c1)c(=O)oc1cc(OCc3ccc(C(=O)OC)cc3)c(OC)cc12 [Palomid 573]

[71, 145]
